Known logP of a selection of compounds
Answer using only a numeral; do not append any unit.

As a guide, the following entries are already answered.
{"Compound": "CN(C)N=Nc1cccc([N+](=O)[O-])c1", "Observed Value": 2.75}
{"Compound": "CCOC(=O)C(C#N)=NNc1cc(Cl)c(Cl)cc1Cl", "Observed Value": 5.21}
{"Compound": "NC(=O)Cn1nnc2ccccc21", "Observed Value": -0.1}

Record CS(=O)(=O)CCCOc1ccc([N+](=O)[O-])cc1 , field logP: 0.93

Record O=C(O)COc1cccc(OC(F)(F)F)c1 , field logP: 2.48

* * *

Known logP of a selection of compounds
Answer using only a numeral; do not append any unit.

{"Compound": "Nc1ccc(I)cc1C(=O)O", "Observed Value": 2.06}
{"Compound": "CCN(CC)CCNC(=O)c1cc(F)ccc1OC", "Observed Value": 2.62}
{"Compound": "CN(N=O)C1CCCCC1", "Observed Value": 1.43}
{"Compound": "CC(C)(Cc1ccccc1)NC(=O)N(CCCl)N=O", "Observed Value": 3.73}
{"Compound": "O=S1(=O)NC(c2ccco2)=Nc2ccccc21", "Observed Value": 1.06}

Record O=[N+]([O-])c1ccc(Oc2ccc(C(F)(F)F)cc2[N+](=O)[O-])cc1 , field logP: 3.65

Record CCN1C(=O)CN=C(c2ccccc2)c2cc(Cl)ccc21 , field logP: 3.21

Record ClC1C(Cl)C(Cl)C(Br)C(Cl)C1Cl (stereo not drawn) , field logP: 3.74

Record CCOP(=S)(OCC)SCS(=O)CC (stereo not drawn) , field logP: 1.78

Record CSc1nnc(C(C)C)c(=O)n1N , field logP: 1.01

Record CN(C)CCc1ccsc1 , field logP: 1.94

Record CCOc1cc(Cc2cnc(N)nc2N)cc(OCC)c1C(C)=O , field logP: 2.04

Record COc1cc(Cc2cnc(N)nc2N)cc(OC)c1OCC#N , field logP: 0.72

Record CN(C)c1nnc(-c2ccccc2)c2ccccc12 , field logP: 3.22

Record CCCCCCCCCCCC[n+]1ccc(C)cc1C.[I-] , field logP: 1.41

* * *

Readout Name: logP
Answer using only a numeral; do not append any unit.

{"Molecule": "NC(=O)NC1OC(=O)c2ccccc21 (stereo not given)", "logP": 0.49}
{"Molecule": "COC(=O)C(C#N)=NNc1cc(C(F)(F)F)cc(C(F)(F)F)c1", "logP": 5.02}
{"Molecule": "COc1cc(Cc2cnc(N)nc2N)cc(OC)c1C#N", "logP": 1.39}

Record CN(C)c1ccc(N(C)C)nn1 , field logP: 0.99

Record O=S(=O)(Nc1cccc(C(F)(F)F)c1)C(F)(F)F , field logP: 4.5

* * *

Known logP of a selection of compounds

{"Compound": "CCc1cc(C(=O)NN)ccn1", "logP": 0.12}
{"Compound": "COc1cc(C)n(-c2cc(C)nc(C)n2)n1", "logP": 2.6}
{"Compound": "CCCC(CO)n1cnc2c(N)ncnc21 (stereo unspecified)", "logP": 0.66}
{"Compound": "CCCC(=O)Nc1ccc(C)cc1O", "logP": 2.26}

Record O=C1CCC(=O)N1c1cccc(Br)c1 , field logP: 1.09

Record O=C1CCC(=O)N1c1ccc(F)cc1 , field logP: 0.29

Record CCCCC1OC(=O)c2cc(NC(C)=O)ccc21 (stereo unspecified) , field logP: 2.77

Record CSC(C)=NOC(=O)N(C)SN(C)C(=O)OC1CCCCC1 , field logP: 3.6

Record O=S1(=O)NC(C2CC=CCC2)=Nc2ccccc21 (stereo unspecified) , field logP: 2.05

Record CC(C)(C)CC(N)C(=O)O (stereo unspecified) , field logP: -1.42

Record CCCCOCc1c(CO)cnc(C)c1O , field logP: 1.34

Record Oc1ccc(C(c2ccc(O)cc2)c2ccccn2)cc1 , field logP: 2.84

Record CCOC(=O)c1ccc(Cl)nn1 , field logP: 0.12

Record CNC(=O)ON=Cc1ccc(Cl)c(Cl)c1 , field logP: 2.89

Record CC(=O)Nc1c(C)cc(O)c(C)c1C , field logP: 0.75

Record CCCNc1c([N+](=O)[O-])cc(C(F)(F)F)cc1[N+](=O)[O-] , field logP: 3.65

Source: the OPERA property sets (Mansouri et al. 2018)
